Test: in vitro
Settings: male, Sprague-Dawley, rat, cryopreserved hepatocytes

{"chemicalSmiles": "O=c1n(CCCN2CCN(c3cccc(Cl)c3)CC2)nc2ccccn12", "readingUnit": "µL/min/1e6 cells", "hepatocyte CLint at 10 µM": 150}

###

Measured IC50, listed per entry.
Biological target: CYP1A2 (Homo sapiens, UniProt P05177)
Sequence (P05177 1-516): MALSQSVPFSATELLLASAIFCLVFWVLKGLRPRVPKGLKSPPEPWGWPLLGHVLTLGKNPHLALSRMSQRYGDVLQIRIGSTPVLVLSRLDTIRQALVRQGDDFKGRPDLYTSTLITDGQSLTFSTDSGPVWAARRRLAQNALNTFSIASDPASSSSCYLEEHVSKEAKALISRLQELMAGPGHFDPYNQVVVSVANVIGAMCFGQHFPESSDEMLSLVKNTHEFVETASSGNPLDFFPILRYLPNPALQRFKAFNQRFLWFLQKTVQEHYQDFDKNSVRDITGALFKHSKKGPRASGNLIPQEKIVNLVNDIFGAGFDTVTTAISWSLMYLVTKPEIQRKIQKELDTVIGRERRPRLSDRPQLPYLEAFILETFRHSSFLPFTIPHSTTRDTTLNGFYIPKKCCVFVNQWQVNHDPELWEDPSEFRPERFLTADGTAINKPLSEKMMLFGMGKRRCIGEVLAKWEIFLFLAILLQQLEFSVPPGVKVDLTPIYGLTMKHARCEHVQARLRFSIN

{"chemicalSmiles": "O=c1n(CCCN2CCN(c3cccc(Cl)c3)CC2)nc2ccccn12", "studyTarget": "CYP1A2 (Homo sapiens, UniProt P05177)", "IC50": "> 100 µM"}
{"chemicalSmiles": "Clc1cccc(N2CCNCC2)c1", "studyTarget": "CYP1A2 (Homo sapiens, UniProt P05177)", "IC50": "> 100 µM"}

meta.source: paper PMC12518996
